Target protein (sequence): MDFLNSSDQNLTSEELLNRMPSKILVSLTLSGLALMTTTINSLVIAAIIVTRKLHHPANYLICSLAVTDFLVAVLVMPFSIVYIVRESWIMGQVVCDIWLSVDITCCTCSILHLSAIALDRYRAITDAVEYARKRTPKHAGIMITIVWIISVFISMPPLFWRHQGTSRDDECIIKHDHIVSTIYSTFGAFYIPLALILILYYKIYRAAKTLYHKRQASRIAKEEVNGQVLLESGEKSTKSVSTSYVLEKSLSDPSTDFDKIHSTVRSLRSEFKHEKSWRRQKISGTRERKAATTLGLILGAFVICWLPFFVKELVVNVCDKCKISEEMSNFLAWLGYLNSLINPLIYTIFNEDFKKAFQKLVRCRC
readout_type: Ki (nM)
Field: numeric (nM). Do not append units.

stdin: Report Ki for CCCCCCOc1nsnc1C1=CCCN(C)C1
stdout: 316

###

test_target: D(2) dopamine receptor (Homo sapiens, UniProt P14416)
Sequence (P14416 whole entry): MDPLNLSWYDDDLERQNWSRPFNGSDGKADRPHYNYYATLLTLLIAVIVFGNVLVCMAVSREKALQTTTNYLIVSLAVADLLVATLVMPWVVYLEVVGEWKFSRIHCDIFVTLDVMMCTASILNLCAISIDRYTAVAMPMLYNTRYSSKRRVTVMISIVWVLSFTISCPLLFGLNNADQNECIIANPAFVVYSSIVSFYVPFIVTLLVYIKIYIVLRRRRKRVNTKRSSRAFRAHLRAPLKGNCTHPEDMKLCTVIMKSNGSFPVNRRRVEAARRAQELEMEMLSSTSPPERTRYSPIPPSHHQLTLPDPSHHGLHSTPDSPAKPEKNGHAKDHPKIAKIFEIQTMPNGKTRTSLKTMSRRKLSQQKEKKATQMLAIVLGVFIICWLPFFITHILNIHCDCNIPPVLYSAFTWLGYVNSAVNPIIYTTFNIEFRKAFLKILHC
readout_type: Ki (nM)
Record the value in nM, omitting the unit from your answer.

stdin: Specify measured Ki for CCCCCCOc1nsnc1C1=CCCN(C)C1 .
stdout: 1000

###

readout_type: pKi
A value of pKi is the negative decimal logarithm of a concentration given in moles per litre.

stdin: Please indicate recorded pKi of CCCCCCOc1nsnc1C1=CCCN(C)C1 measured with 5-hydroxytryptamine receptor 2A (Homo sapiens).
Sequence (P28223 whole entry): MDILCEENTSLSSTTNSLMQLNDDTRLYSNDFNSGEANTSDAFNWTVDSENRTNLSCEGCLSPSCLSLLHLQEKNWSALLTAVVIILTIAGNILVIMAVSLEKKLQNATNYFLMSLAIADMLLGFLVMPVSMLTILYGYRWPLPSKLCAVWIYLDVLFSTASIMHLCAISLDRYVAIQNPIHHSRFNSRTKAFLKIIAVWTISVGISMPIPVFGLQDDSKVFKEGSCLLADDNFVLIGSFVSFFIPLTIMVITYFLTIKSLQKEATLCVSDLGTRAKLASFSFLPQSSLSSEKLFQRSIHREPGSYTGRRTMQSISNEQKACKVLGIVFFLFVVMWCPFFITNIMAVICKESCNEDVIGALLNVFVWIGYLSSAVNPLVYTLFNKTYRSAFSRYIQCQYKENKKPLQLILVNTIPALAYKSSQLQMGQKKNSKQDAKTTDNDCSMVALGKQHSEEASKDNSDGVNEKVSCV
stdout: 6.90

###

test_target: 5-hydroxytryptamine receptor 7 (Homo sapiens, UniProt P34969)
Sequence (P34969 whole entry): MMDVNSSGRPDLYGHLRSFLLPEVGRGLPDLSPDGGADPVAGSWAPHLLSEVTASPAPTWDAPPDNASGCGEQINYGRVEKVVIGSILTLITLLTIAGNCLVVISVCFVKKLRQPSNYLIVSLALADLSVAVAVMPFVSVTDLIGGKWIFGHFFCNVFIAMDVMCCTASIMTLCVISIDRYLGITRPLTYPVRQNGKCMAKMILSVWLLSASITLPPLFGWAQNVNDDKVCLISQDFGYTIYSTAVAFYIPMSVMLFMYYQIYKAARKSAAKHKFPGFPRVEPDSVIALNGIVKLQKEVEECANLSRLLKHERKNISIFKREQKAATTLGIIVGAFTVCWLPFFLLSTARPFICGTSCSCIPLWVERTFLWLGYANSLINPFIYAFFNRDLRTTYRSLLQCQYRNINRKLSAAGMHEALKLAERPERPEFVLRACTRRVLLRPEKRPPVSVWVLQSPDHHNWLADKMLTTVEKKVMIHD
readout_type: Ki
Just so you know, I need the unit written after the number.

stdin: Given CCCCCCOc1nsnc1C1=CCCN(C)C1 , respond with its Ki.
stdout: 126 nM

###

test_target: 5-hydroxytryptamine receptor 1E (Homo sapiens)
Sequence (P28566 whole entry): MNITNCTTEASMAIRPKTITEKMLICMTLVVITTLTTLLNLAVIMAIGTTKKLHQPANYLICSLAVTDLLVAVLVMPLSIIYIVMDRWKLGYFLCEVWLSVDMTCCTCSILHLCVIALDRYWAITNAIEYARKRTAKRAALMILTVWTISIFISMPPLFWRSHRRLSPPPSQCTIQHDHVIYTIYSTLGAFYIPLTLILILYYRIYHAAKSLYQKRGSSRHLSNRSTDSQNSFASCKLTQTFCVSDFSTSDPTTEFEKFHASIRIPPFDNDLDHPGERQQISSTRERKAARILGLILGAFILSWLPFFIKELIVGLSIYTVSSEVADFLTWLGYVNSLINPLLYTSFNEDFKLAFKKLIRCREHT
readout_type: Ki (nM)
Answer format: numeric, nM implied, no suffix.

stdin: Report value only: Ki, 5-hydroxytryptamine receptor 1E (Homo sapiens), CCCCCCOc1nsnc1C1=CCCN(C)C1
stdout: 2510
